molecular target: human CD33 on CD33-expressing THP-1 cells (human, UniProt P20138 18-364); test: cell-based or functional assay
Sequence (P20138 18-364): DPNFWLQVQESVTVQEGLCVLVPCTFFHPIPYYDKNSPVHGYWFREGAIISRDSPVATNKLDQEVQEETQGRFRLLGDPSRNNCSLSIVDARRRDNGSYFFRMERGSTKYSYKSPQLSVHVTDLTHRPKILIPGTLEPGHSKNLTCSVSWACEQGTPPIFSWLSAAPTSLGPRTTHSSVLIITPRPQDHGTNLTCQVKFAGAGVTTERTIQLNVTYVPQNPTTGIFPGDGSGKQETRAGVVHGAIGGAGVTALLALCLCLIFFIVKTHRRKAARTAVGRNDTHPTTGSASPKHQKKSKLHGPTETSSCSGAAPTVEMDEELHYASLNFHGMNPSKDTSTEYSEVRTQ
property-measured: Cytotox EC50 (nM) Donor 156

Request: Read off the recorded Cytotox EC50 (nM) Donor 156 for scFv-VHH bispecific molecule JL4 x 6H4 (scFv (VL-L-VH)-L-VHH with C-tag) (bispecific antibody) DVVMTQSPLSLPVTLGQPASISCRSSQSLVYSDGNTYLNWFQQRPGQSPRRLIYKVSTRDSGVPDRFSGSGSGTDFTLKISRVEAEDVAVYYCLQGTHWPWTFGQGTKVEIKGGSEGKSSGSGSESKSTGGSQVQLVESGGGLVQPGGSLRLSCAASGITFSNYWMSWVRQAPGKGLEWVASIKRDGSDKYYVDSVKGRFTISRDNAKNSLSLQMHSLRAEDTAVYYCAKGEFDYWGQGTLVTVSSGGGGSEVQLVESGGGLVQAGGSLRLSCAASGRPFSNYGMGWFRQAPGKKREFVAGISWSGGSTDYADSVKGRFTISRDNAKNTVYLQMNSLKPEDTAVYYCAAVFSGAETAYYPSDDYDYWGQGTQVTVSSAAAEPEA
Response: ~0.00035 nM
